In this section we review reported pIC50 values for a set of compounds.
# System: BA/F3 (insSVD) cells
# assay: Ba/F3-EGFR-insSVD cell survival assay (Cell Titer-Glo)
# Assay type: cell-based
# experimentalConditions: Mus musculus, BaF3, 48 h, Table 3a, cell survival, Cell Titer-Glo, with 10 ng/ml EGF, without IL-3
Please keep in mind that pIC50 is minus log10 of the molar concentration; only the number is needed.

// pIC50 lookup, key: CCNC/C=C/C(=O)N1CCn2nc(-c3ccc(F)cc3)c(-c3ccncc3)c2C1 [Example 81]
6.87

// pIC50 lookup, key: CNC/C=C/C(=O)N1CCn2nc(-c3ccc(F)cc3)c(-c3ccncc3)c2C1 [Example 80]
5.86

// pIC50 lookup, key: C=CC(=O)N1CCn2nc(-c3ccc(F)cc3)c(-c3ccnc(Nc4ccccc4)c3)c2C1 [Example 20]
6.21

// pIC50 lookup, key: C=CC(=O)N1CCn2nc(-c3ccc(F)cc3)c(-c3ccncc3)c2C1C (racemic) [Example 239]
7.41

// pIC50 lookup, key: C=CC(=O)N1CCn2nc(-c3cccc(Cl)c3)c(-c3ccnc4[nH]cc(C)c34)c2C1 [Example 177]
7.23

// pIC50 lookup, key: C=CC(=O)N1Cc2c(-c3ccncc3)c(-c3ccc(Cl)c(C)c3)nn2CC1(C)C [Example 212]
6.53

// pIC50 lookup, key: C=CC(=O)N1Cc2c(-c3ccncc3)c(-c3ccc(Cl)cc3)nn2C(C)C1 (racemic) [Example 281]
8.01

// pIC50 lookup, key: C=CC(=O)N1CCn2nc(-c3ccc(OC)c(F)c3)c(-c3ccncc3)c2C1 [Example 42]
7.27
